Tested on: ACHN renal
Assay: NCI-60 one-dose screen, 48 h (100 = growth as untreated, 0 = no growth, -100 = all killed)
Conditions: 10 µM
This is part of a sample that, as a whole, favours compounds with a hit. Of some 83,000 tested, about 20% had one in any assay.
Label MET for high-side growth (at or above 20%) and NOT MET for low-side growth (below it).

CC1(C)CC(=O)C2=C(C1)N(Cc1ccc(C(=O)O)cc1)C1=C(C(=O)CC(C)(C)C1)C2c1ccc(Cl)cc1; MET

[in] Please check the record O=C(CN1CCN(c2ncnc3c2cnn3-c2ccccc2)CC1)Nc1ccc(Cl)cc1 and state if its growth is at or above 20%.
[out] NOT MET

[in] Please check the record Cn1cc(-c2cc3nc(-c4c[nH]c5ccccc45)cc(N)n3n2)c2cc(Cl)ccc21 and state if its growth is at or above 20%.
[out] NOT MET

[in] Please check the record Cn1cc(-c2nc(N)nnc2-c2c[nH]c3ccccc23)c2cc(Br)cnc21 and state if its growth is at or above 20%.
[out] NOT MET

[in] Please check the record O=C(Nc1ccc(OCC(=O)c2ccc(Cl)cc2)cc1)Nc1ccc(Cl)c(C(F)(F)F)c1 and state if its growth is at or above 20%.
[out] NOT MET

[in] Please check the record CC1[C@H]2[C@H](C[C@H]3[C@@H]4CC=C5c6sc(Nc7cccc(Cl)n7)nc6CC[C@]5(C)[C@H]4CC[C@@]32C)O[C@]12CC[C@@H](C)CO2 (some centres not stated) and state if its growth is at or above 20%.
[out] MET

----------
Tested on: MDA-MB-468 breast
Assay: NCI-60 one-dose screen, 48 h
Conditions: 10 µM unless noted
About 83,000 compounds went through this panel and 20% of them were active in at least one assay; those are over-represented in the sample as a whole. Calls of active or inactive are those of the source. How the source made its calls: active means growth percent below 10; inactive means the rest.
Pick from active, inactive when you respond.

Solved entries (count: 6):
c1cc[c]([Bi]([c]2ccccc2)[c]2ccccc2)cc1; inactive
NC(=O)c1c(NC(=O)c2ccc(C(F)(F)F)cc2)sc2c1CCC(=O)C2; active
COc1ccc2sc(-n3nc4nc5n(c(=O)c4c3N)-c3ccccc3Sc3ccccc3-5)nc2c1; inactive
O=S(=O)(NCCNc1cc(-c2cn(-c3ccccc3)nc2-c2cccc(O)c2)ccn1)c1ccc(Cl)cc1; active
O=NN(CC(=O)NNc1ccccc1)CC(=O)NNc1ccccc1; inactive
O=C(CN1CCN(c2ccc(Cl)cc2)CC1)N1CCN(c2nnc(-c3ccccc3)c(-c3ccccc3)n2)CC1; inactive

[in] Assay result, entry O=C(O)C(c1ccccc1)C(O)c1ccccc1 (stereo unspecified) — outcome?
[out] inactive

[in] Assay result, entry O=C1/C(=C/c2ccc([N+](=O)[O-])o2)Oc2ccccc21 — outcome?
[out] active

[in] Assay result, entry CNC(=O)c1c(NC(=O)c2ccc(C(C)(C)C)cc2)sc2c1CCC(=O)C2 — outcome?
[out] active

[in] Assay result, entry Cc1ccc(NS(=O)(=O)c2ccc3c(c2)C(=O)CC(c2ccc(C(=O)C(C)C)cc2)N3)cc1C (stereo unspecified) — outcome?
[out] active

----------
Tested on: MDA-MB-468 breast
Experiment: NCI-60 one-dose screen, 48 h (100 = growth as untreated, 0 = no growth, -100 = all killed)
Conditions: 10 µM unless noted
Compounds without any hit were thinned out: in the full panel of roughly 83,000, 20% have a hit.
Label 1 for high-side growth (at or above 80%) and 0 for low-side growth (below it).

CCCCOC(=O)c1ccc(C(C)C)cc1; 1

Here is the next item to consider.
[in] Please check the record N#Cc1c(-c2ccccc2)cc(-c2ccccc2)n(CCCCC(=O)O)c1=O and state if its growth is at or above 80%.
[out] 1

----------
System: MDA-MB-468 breast
Assay: NCI-60 one-dose screen, 48 h (100 = growth as untreated, 0 = no growth, -100 = all killed)
Conditions: 10 µM unless noted
About 83,000 compounds went through this panel and 20% of them were active in at least one assay; those are over-represented in the sample as a whole.
Criterion: growth strictly less than -10%. Met: Satisfied. Not met: Not satisfied.

Solved entries (count: 5):
COc1cccc(Cn2c(-c3nonc3N)nc3ccccc32)c1; Satisfied
O=C(NC1=CC(=O)c2ccccc2C1=O)c1ccccc1; Satisfied
O=C(C[n+]1cccc2cc(Cl)ccc21)c1ccc2c(c1)CCCC2; Not satisfied
O=C(Nc1ccccc1)Nc1ncnc2c1ncn2-c1ccc(Cl)cc1; Not satisfied
O=c1nc2oc3ccc4ccccc4c3cc-2s1; Not satisfied

[in] Lab note: confirm whether the reported growth for this compound is below -10%, equality not counting. compound: COC(=O)Nc1nc2ccc(C3(c4ccc(F)cc4)OCCO3)cc2[nH]1
[out] Not satisfied

----------
Test system: MDA-MB-468 breast
Assay: NCI-60 one-dose screen, 48 h (100 = growth as untreated, 0 = no growth, -100 = all killed)
Conditions: 10 µM unless noted
Protocol: Growth inhibition of the MDA-MB-468 human Breast tumor cell line is measured as a screen for anti-cancer activity. Cells are grown in 96 well plates and exposed to the test compound for 48 hours. Compounds are tested at a single concentration, which is 10^-5 M for most compounds. The reported endpoint is percent growth (GI% or GIPRCNT), where numbers from 0 - 100% represent growth inhibition, and numbers from -100% - 0 represent cell death. […]
This is part of a sample that, as a whole, favours compounds with a hit. Of some 83,000 tested, about 20% had one in any assay.
readout: growth (%)
Your answer is read as %, so omit the unit and give the number.

As a guide, the following entries are already answered.
O=C1C[C@H](N2C(=O)c3ccccc3S2(=O)=O)C2CO[C@@H]1O2; 80.3
Cc1ccc(-c2nnc(SCc3nc(N)nc(Nc4ccccc4F)n3)n2-c2ccccc2)cc1; 86.5
COc1ccc(-c2nnc(SCc3ccc(O)c4ncccc34)n2-c2ccccc2)cc1; 10.3
COc1ccc(-c2nc3sccn3c2/C=C/C(=O)c2c[nH]c3ccccc23)cc1; 62.6

Now let's try a different one.
[in] Record request: growth value, item O=c1nc(-c2ccccc2)c2cc(-c3ccc(C(F)(F)F)nc3)ccc2[nH]1
[out] 104

----------
System: MDA-MB-468 breast
Assay: NCI-60 one-dose screen, 48 h (100 = growth as untreated, 0 = no growth, -100 = all killed)
Details: 10 µM unless noted
The panel holds about 83,000 compounds, 20% with a hit somewhere; the sample as a whole holds those more often.
Label T for high-side growth (at or above 40%) and F for low-side growth (below it).

CCOC(=O)C(=Cc1ccccc1F)C(=O)OCC; T
COc1cc(-c2cc(-c3nc4ccc(Cl)cc4[nH]3)[nH]n2)cc(OC)c1OC; F
O=C1C2=C(C(=O)c3c(O)ccc(O)c31)N(c1ccc(N3CCOCC3)nc1)Cc1ccccc1O2; F
Cc1ccc(/C=C(/C#N)n2nnc3ncccc32)cc1; F
CCCCn1c(-c2ccc(-c3nc(-c4ccc(Cl)cc4)no3)cc2)nc(-c2ccccc2)c1-c1ccccc1; T
O=C1/C(=C/c2ccccc2F)CNC/C1=C\c1ccccc1F; F
Nc1ccc(-c2cccs2)cc1NC(=O)c1ccc(CCCC(=O)Nc2ccc(C3CC3N)cc2)cc1 (stereo unspecified); T
CNc1ncc(-c2ccc(C(F)(F)F)cc2)c(NC2CCCCCC2)n1; T

[in] Please check the record O=C1NC(=O)c2ncccc21 and state if its growth is at or above 40%.
[out] T

[in] Please check the record COc1ccc2nc3cc(Cl)ccc3c(NC(=O)CSc3ccc(Cl)cc3)c2c1 and state if its growth is at or above 40%.
[out] F

[in] Please check the record O=C1/C(=C/c2cccc(Br)c2)COc2ccc(O)c(O)c21 and state if its growth is at or above 40%.
[out] F

----------
System: MDA-MB-468 breast
Assay: NCI-60 one-dose screen, 48 h (100 = growth as untreated, 0 = no growth, -100 = all killed)
Conditions: 10 µM unless noted
About 83,000 compounds went through this panel and 20% of them were active in at least one assay; those are over-represented in the sample as a whole.
readout: growth (%)
Your answer is read as %, so omit the unit and give the number.

As a guide, the following entries are already answered.
C/C(=C(/c1ccccc1)c1ccc(N2C(=O)c3cccc4c(N5CCN(C)CC5)ccc(c34)C2=O)cc1)c1ccccc1; 42.5
COc1cc(-c2nc(-c3ccccc3)[nH]c2-c2ccnc(NCCCNS(=O)(=O)c3cccc(F)c3)n2)ccc1Cl; 43.2
CCNc1nnc(COc2ccc(CNC(=O)CCCC/C=C/C(C)C)cc2OC)o1; 104
C(=C\c1ccncc1)/c1ccncc1; 92.6
N#Cc1c(NC(=O)c2cccc(Br)c2)sc2c1CCCC2; 59.3
O=c1[nH]c(N2CCC(Cc3ccccc3)CC2)nc2sc3c(c12)CCCC3; 104

[in] Item: COc1ccc(OC2=C(C#N)C(=N)N3c4ccccc4Sc4ccccc4C3N2)cc1 (stereo not drawn) Test system: MDA-MB-468 breast Read-out: growth Value: ?
[out] 94.5

[in] Item: COc1ccc(NC(=O)c2ccc3c(c2)nc(-c2ccc(Cl)cc2)n3-c2cc(C(C)(C)C)[nH]n2)cc1 Test system: MDA-MB-468 breast Read-out: growth Value: ?
[out] 87.5
